Value source: patent US9006209B2

- assaySummary: Cytotoxicity in Huh-7 cells
- Assay type: cell-based
- conditionContext: human
measurementLabel: CC50

molecule="CCCCOC(=O)[C@H](C)N[P@@](=O)(OC[C@H]1O[C@@H](n2ccc(=O)[nH]c2=O)[C@@]2(CCO2)[C@@H]1O)Oc1ccccc1 [P1]" reported="> 98 µM"
